Organism: Homo sapiens
assay.explanation: Binding affinity to human telomeric DNA sequence assessed as stabilization of G-quadruplex at 10 uM by thermal denaturation
parameter: ΔTm (°C)

1 = CC[C@H](C)[C@H](N)C(=O)NCCNC(=O)c1ccc2c(c1)C(=O)c1ccc(C(=O)NCCNC(=O)[C@@H](N)[C@@H](C)CC)cc1C2=O
2 = C[C@@H](O)[C@H](N)C(=O)NCCNC(=O)c1ccc2c(c1)C(=O)c1ccc(C(=O)NCCNC(=O)[C@@H](N)[C@@H](C)O)cc1C2=O
QUERY: Sorting by ΔTm in descending order, would 1 or 2 appear first? To answer, give the label that identifies your chosen option.
RESULT: 2

A = N=C(N)NCCC[C@H](N)C(=O)NCCC(=O)Nc1ccc2c(c1)C(=O)c1ccc(NC(=O)CCNC(=O)[C@@H](N)CCCNC(=N)N)cc1C2=O
B = CC(C)C[C@H](N)C(=O)NCCNC(=O)c1ccc2c(c1)C(=O)c1cc(C(=O)NCCNC(=O)[C@@H](N)CC(C)C)ccc1C2=O
C = O=C(CNC(=O)[C@@H]1CCCN1)Nc1ccc2c(c1)C(=O)c1ccc(NC(=O)CNC(=O)[C@@H]3CCCN3)cc1C2=O
QUERY: I would appreciate it if you could sort these 3 compounds by ΔTm, starting from the smallest number. // rank by listing labels in the order requested
RESULT: B, C, A
(B: 2.7 °C, C: 15.6 °C, A: 25 °C)

* * *

measurement.target: Telomerase reverse transcriptase (Homo sapiens, UniProt O14746)
Sequence (O14746 whole entry): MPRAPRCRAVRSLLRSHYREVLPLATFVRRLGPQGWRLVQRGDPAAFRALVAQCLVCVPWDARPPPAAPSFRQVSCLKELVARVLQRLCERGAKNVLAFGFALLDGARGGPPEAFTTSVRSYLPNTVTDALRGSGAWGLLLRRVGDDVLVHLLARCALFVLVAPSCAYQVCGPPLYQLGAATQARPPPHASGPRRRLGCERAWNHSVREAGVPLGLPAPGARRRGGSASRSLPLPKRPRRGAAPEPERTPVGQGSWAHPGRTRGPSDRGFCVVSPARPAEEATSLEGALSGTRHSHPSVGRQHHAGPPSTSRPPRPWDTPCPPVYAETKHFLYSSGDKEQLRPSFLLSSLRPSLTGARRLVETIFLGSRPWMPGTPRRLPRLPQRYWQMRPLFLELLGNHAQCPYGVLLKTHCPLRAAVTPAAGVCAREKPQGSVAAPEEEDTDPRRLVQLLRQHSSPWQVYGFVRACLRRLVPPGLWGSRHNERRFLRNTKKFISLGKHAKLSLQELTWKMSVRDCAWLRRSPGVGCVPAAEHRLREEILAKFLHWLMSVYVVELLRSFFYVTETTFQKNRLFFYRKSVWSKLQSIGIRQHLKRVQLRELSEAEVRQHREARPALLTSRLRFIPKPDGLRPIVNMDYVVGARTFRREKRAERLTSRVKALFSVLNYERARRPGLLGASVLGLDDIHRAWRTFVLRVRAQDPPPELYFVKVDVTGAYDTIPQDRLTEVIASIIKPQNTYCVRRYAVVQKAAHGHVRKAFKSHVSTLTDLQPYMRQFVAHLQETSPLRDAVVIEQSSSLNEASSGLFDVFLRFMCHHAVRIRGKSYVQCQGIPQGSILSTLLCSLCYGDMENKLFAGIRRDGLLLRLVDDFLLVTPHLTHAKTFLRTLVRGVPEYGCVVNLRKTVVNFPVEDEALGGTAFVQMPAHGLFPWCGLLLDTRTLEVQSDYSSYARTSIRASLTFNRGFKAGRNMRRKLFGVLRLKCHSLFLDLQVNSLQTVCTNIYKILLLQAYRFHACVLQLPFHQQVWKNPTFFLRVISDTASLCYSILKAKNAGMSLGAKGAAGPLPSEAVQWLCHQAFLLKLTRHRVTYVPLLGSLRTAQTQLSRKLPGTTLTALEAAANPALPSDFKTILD
assay.explanation: Inhibition of telomerase in human JR8 cells by TRAP assay
pEC50: −log10 of the molar value.
parameter: pEC50

chemical_smiles=NCC(=O)Nc1ccc2c(c1)C(=O)c1ccc(NC(=O)CN)cc1C2=O measurement_target="Telomerase reverse transcriptase (Homo sapiens, UniProt O14746)" parameter=pEC50 observed_measurement=4.60
chemical_smiles=NCCCC[C@H](N)C(=O)NCCC(=O)Nc1ccc2c(c1)C(=O)c1cc(NC(=O)CCNC(=O)[C@@H](N)CCCCN)ccc1C2=O measurement_target="Telomerase reverse transcriptase (Homo sapiens, UniProt O14746)" parameter=pEC50 observed_measurement=5.82

A = NCC(=O)NCC(=O)Nc1ccc2c(c1)C(=O)c1ccc(NC(=O)CNC(=O)CN)cc1C2=O
B = C[C@H](N)C(=O)NCC(=O)Nc1ccc2c(c1)C(=O)c1ccc(NC(=O)CNC(=O)[C@H](C)N)cc1C2=O
C = NCCC(=O)Nc1ccc2c(c1)C(=O)c1cc(NC(=O)CCN)ccc1C2=O
QUERY: Put the entries in order of pEC50, starting with the largest number. // rank by listing labels in the order requested
RESULT: C, A, B

* * *

Species: Homo sapiens
assay.explanation: Binding affinity to human telomeric DNA sequence assessed as stabilization of G-quadruplex at 1 uM by thermal denaturation
parameter: ΔTm (°C)

chemical_smiles=N=C(N)NCCC[C@H](N)C(=O)NCCC(=O)Nc1ccc2c(c1)C(=O)c1ccc(NC(=O)CCNC(=O)[C@@H](N)CCCNC(=N)N)cc1C2=O parameter=ΔTm observed_measurement=4.8

a = NCCCC[C@H](N)C(=O)NCCC(=O)Nc1ccc2c(c1)C(=O)c1ccc(NC(=O)CCNC(=O)[C@@H](N)CCCCN)cc1C2=O
b = CC[C@H](C)[C@H](N)C(=O)NCCC(=O)Nc1ccc2c(c1)C(=O)c1cc(NC(=O)CCNC(=O)[C@@H](N)[C@@H](C)CC)ccc1C2=O
QUERY: Sorting by ΔTm in descending order, would a or b appear first? To answer, give the label that identifies your chosen option.
RESULT: a
